Collected set of IC50 measured with SYK kinase (Homo sapiens) across studies.
Mark each entry Y if its IC50 sits below 0.08 µM, and N for all others.

CC(=O)N1CCO[C@H](COc2nc(-c3ccc(N4CCOCC4)cc3)cc3nccnc23)C1: Y
CNS(=O)(=O)N1CCOC(COc2nc(-c3ccc(C(C)(C)C#N)cc3)cc3nccnc23)C1 (centres unmarked): Y
COCCOCCOCCOc1cc(Nc2ncc3cc(-c4cc(C(=O)Nc5cc(C(C)(C)C)cc(NS(C)(=O)=O)c5OC)ccc4C)ccc3n2)cc(OC)c1: N
COCCOCCOCCOc1cc(Nc2nccc(Oc3ccc(NC(=O)Nc4cc(C(C)(C)C)cc(NS(C)(=O)=O)c4OC)c4ccccc34)n2)cc(OC(F)F)c1: N
CC(C)(C)c1cc(NC(=O)Nc2ccc(Oc3ccnc(Nc4ccc5c(cnn5CCN5CCOCC5)c4)n3)c3ccccc23)n(-c2ccc(OCCN3CCOCC3)nc2)n1: Y
N[C@H]1CCCC[C@H]1Nc1nc(-c2cc3c(F)cccc3s2)c2c(c1F)CNC2=O: Y
CC(C)(C)c1cc(NC(=O)Nc2ccc(Oc3ccnc(Nc4ccc5oc(=O)[nH]c5c4)n3)c3ccccc23)n(-c2ccc(OCCN3CCOCC3)cc2)n1: Y
N[C@H]1CCCC[C@H]1Nc1cc2cn[nH]c(=O)c2c(Nc2cccc3ncccc23)n1: Y
C#Cc1cc(Nc2nccc(Oc3ccc(NC(=O)Nc4cc(C(C)(C)C)nn4-c4ccc(C)cc4)c4ccccc34)n2)cc(C(=O)NCCOCCOC)c1: N
